Test Target: T1, human CD79B on the surface of cells (DoHH2 / DOHH-2, WSU-DLCL2) (human, UniProt P40259 29-229)
T1 sequence (looked up): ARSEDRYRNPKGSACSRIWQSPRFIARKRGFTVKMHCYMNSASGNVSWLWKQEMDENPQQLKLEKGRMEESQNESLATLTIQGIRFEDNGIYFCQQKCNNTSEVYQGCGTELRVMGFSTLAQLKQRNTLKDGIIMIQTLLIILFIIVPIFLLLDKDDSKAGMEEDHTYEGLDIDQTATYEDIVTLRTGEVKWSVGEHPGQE
Measurement Protocol: cell-based or functional assay
Quantity: IC50 of in vitro proliferation, WSU-DLCL2 cells (MTT, 72 h)
Be sure to follow the number with its unit.

Given the binder ADC-5 (antibody, human IgG1, kappa, V domains shown, compound D coupled to cysteines after TCEP reduction; positions not given; compound D (exatecan-type linker-drug, Topo I inhibitor) coupled to cysteines after TCEP reduction; positions not given; mean n=1.81 per antibody, Antibody-drug conjugate of hAb015-10; also called HAB015-10-cys-D, with a DAR value of about 2) VH: EVQLVQSGAEVKKPGSSVKVSCKASGSSFSSYGINWVKQAPGQGLEWIGEIFPRSGNTYYNEKFEGRATLTADKSTSTAYMELRSLRSEDTAVYYCAKGDLGDFDYWGQGTTVTVSS VL: DFVMTQTPLSLPVTPGEPASISCRSSQSIVHSDGNTYFEWYLQKPGQSPKLLIYKVSNRFSGVPDRFSGSGSGTDFTLKISRVEAEDVGVYYCFQGSHVPWTFGGGTKVEIKR , write its reported IC50 of in vitro proliferation, WSU-DLCL2 cells (MTT, 72 h).
0.0683 µg/mL
